Measured Target: Transforming acidic coiled-coil-containing protein 3 (Homo sapiens)
Method Description: inhibition of ARNT PAS-B/TACC3 complex formation – biochemical, AlphaScreen, cherry-picked samples, confirmation (AID 651703);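 also: TACC3 partner is the GST-tagged E629A mutant dimer; hits lower the signal meaning they disrupt ARNT binding to TACC3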
Condition Set: AlphaScreen His-ARNT PAS-B / GST-TACC3 binding, luminescence
The reader will find reported AC50 values listed item by item below.

Answered cases to consult:
molecule=N[C@H]1CC[C@@H](CCn2cc(-c3ccccn3)nn2)O[C@H]1CO value_kind=AC50 assay_value="1.42 µM"
molecule=O=C(NC[C@@H]1[C@H](c2ccccc2)[C@H](CO)N1Cc1ccccn1)C1CCCC1 value_kind=AC50 assay_value="40.7 µM"
molecule="O=C(NCCCn1ccnc1)C(=O)NCC1OCCN1S(=O)(=O)c1ccc(F)cc1 (configuration not stated)" value_kind=AC50 assay_value="3.5 µM"
molecule=O=C(CN1C(=O)/C(=C\c2cccs2)SC1=S)Nc1cccc(C(=O)O)c1 value_kind=AC50 assay_value="26.3 µM"
molecule="CCC(C)Nc1nc(-c2ccccn2)nc2ccccc12 (configuration not stated)" value_kind=AC50 assay_value="8.57 µM"

Proceeding to the next molecule to report its AC50.
Tell me the measured AC50 of CC(=O)Nc1cccc(C(=O)OCC(=O)Nc2nnc(-c3ccccc3)o2)c1 , please.
16.3 µM

----------
Reported AC50 by item:
Measured Target: Transforming acidic coiled-coil-containing protein 3 (Homo sapiens) (UniProt Q9Y6A5)
Method Description: inhibition of ARNT PAS-B/TACC3 complex formation – biochemical, AlphaScreen, cherry-picked samples, confirmation (AID 651703)
Condition Set: AlphaScreen His-ARNT PAS-B / GST-TACC3 binding, luminescence

Query: AC50; subject: CC1=C(SCc2ccccc2)C(=O)c2ccccc2C1=O
39.7 µM

----------
Measured Target: Transforming acidic coiled-coil-containing protein 3 (Homo sapiens)
Method Description: inhibition of ARNT PAS-B/TACC3 complex formation – biochemical, AlphaScreen, cherry-picked samples, confirmation (AID 651703)
Condition Set: AlphaScreen His-ARNT PAS-B / GST-TACC3 binding, luminescence
Value Kind: AC50

The examples below pair each entry with its known result.
compound=O=C(CSc1n[nH]c(-c2ccccn2)n1)Nc1ccccc1 assay_value="0.706 µM"
compound="CCC1CCCCN1S(=O)(=O)c1ccc(NC(=O)CSc2ncccc2C(=O)O)cc1 (stereo not drawn)" assay_value="15.4 µM"
compound=O=S(=O)(c1cccc2cccnc12)N1CCN(Cc2ccc(OCCO)cc2)CC1 assay_value="48.2 µM"
compound="CC(=O)NC(c1ccc(Cl)cc1Cl)c1ccc2cccnc2c1O (stereo not drawn)" assay_value="5.14 µM"
compound=c1ccc(-c2nnc(-c3ccccn3)nc2NCCc2ccccn2)cc1 assay_value="< 0.5 µM"

I'm curious: which AC50 was measured for COc1ccc(NC(=O)N[C@@H]2CC[C@H](CCn3cc(-c4ccccn4)nn3)O[C@@H]2CO)cc1 tested on Transforming acidic coiled-coil-containing protein 3 (Homo sapiens)?
21.5 µM

Provide value of AC50 for this record tested with Transforming acidic coiled-coil-containing protein 3 (Homo sapiens): O=C(Cn1cnc([N+](=O)[O-])n1)N/N=C/c1cc(Cl)ccc1O
4.77 µM

Recorded AC50 for N#CCC(=O)N/N=C\c1ccccc1OC/C=C/c1ccccc1 with Transforming acidic coiled-coil-containing protein 3 (Homo sapiens), please?
6.51 µM

# query: AC50 | item Cc1cccc(C(=O)Nc2nnc(-c3cccnc3)o2)c1 | system: Transforming acidic coiled-coil-containing protein 3 (Homo sapiens)
21.7 µM

Which AC50 is reported with Transforming acidic coiled-coil-containing protein 3 (Homo sapiens) for this entry: O=C(CSc1ccc(-c2ccccn2)nn1)NCc1ccc(Cl)cc1 ?
11 µM

Any idea what AC50 came out for CN1CCN(c2cc(-c3cc(O)c4ncccc4c3)ccn2)CC1 on Transforming acidic coiled-coil-containing protein 3 (Homo sapiens)?
1.77 µM

Provide the documented AC50 with Transforming acidic coiled-coil-containing protein 3 (Homo sapiens) as the system for O=C(N[C@H]1CC[C@H](CCn2cc(-c3ccccn3)nn2)O[C@H]1CO)c1cccnc1
24.8 µM

Under Transforming acidic coiled-coil-containing protein 3 (Homo sapiens): AC50 value of Cc1c(NC(=O)CSc2cccc3cccnc23)c(=O)n(-c2ccccc2)n1C ?
3.6 µM

Provide value of AC50 for this record tested with Transforming acidic coiled-coil-containing protein 3 (Homo sapiens): Nc1nnc2c(n1)CCCC2
4.63 µM

Lookup: AC50 / Transforming acidic coiled-coil-containing protein 3 (Homo sapiens) / Cc1n[nH]c(=O)nc1N/N=C/c1ccco1
42.5 µM

Give Transforming acidic coiled-coil-containing protein 3 (Homo sapiens) AC50 for O=C(N[C@H]1CC[C@@H](CCn2cc(-c3ccccn3)nn2)O[C@H]1CO)c1ccccc1
12.1 µM

----------
Measured Target: Transforming acidic coiled-coil-containing protein 3 (Homo sapiens) (UniProt Q9Y6A5)
Method Description: inhibition of ARNT PAS-B/TACC3 complex formation – biochemical, AlphaScreen, cherry-picked samples, confirmation (AID 651703);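 also: TACC3 partner is the GST-tagged E629A mutant dimer; hits lower the signal meaning they disrupt ARNT binding to TACC3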
Condition Set: AlphaScreen His-ARNT PAS-B / GST-TACC3 binding, luminescence
Entries and their measured AC50 follow.

Completed entries (count: 5):
molecule=COc1ccccc1Nc1cc2cc(Br)ccc2c(=O)[nH]1 measured_target="Transforming acidic coiled-coil-containing protein 3 (Homo sapiens) (UniProt Q9Y6A5)" assay_value="16.8 µM"
molecule=COc1ccc(CNc2nc(-c3ccccn3)nnc2-c2ccccc2)cc1 measured_target="Transforming acidic coiled-coil-containing protein 3 (Homo sapiens) (UniProt Q9Y6A5)" assay_value="0.611 µM"
molecule="CCc1ccc2c(c1)C1(NN=C(c3ccc(C)cc3)S1)C(=O)N2 (stereo not drawn)" measured_target="Transforming acidic coiled-coil-containing protein 3 (Homo sapiens) (UniProt Q9Y6A5)" assay_value="1.52 µM"
molecule=O=C(CSc1ccc(-c2ccccn2)nn1)NCc1ccc(F)cc1 measured_target="Transforming acidic coiled-coil-containing protein 3 (Homo sapiens) (UniProt Q9Y6A5)" assay_value="6.65 µM"
molecule="Cc1[nH]n(-c2ccccc2)c(=O)c1/C=N\\NC(=O)C1COc2ccccc2O1 (stereo not drawn)" measured_target="Transforming acidic coiled-coil-containing protein 3 (Homo sapiens) (UniProt Q9Y6A5)" assay_value="17.4 µM"

Fill blank: measured AC50 of the molecule COc1cccc(/C=N/Nc2ccnc(=O)[nH]2)c1O is ____.
9.05 µM

I would be grateful if you could share the reported AC50 for CC(=O)c1cccc(-c2ccc3c(=O)[nH]c(Nc4ccccc4)cc3c2)c1 .
23.1 µM

Fill in the blank: the reported AC50 of O=C(Nc1ccc(F)cc1)c1nc[nH]c1C(=O)O is ____.
14.3 µM

What measured AC50 goes with O=C(Nc1ccccc1C(=O)Nc1ccccc1C(=O)O)c1ccccc1 ?
65.3 µM

Form field: reported AC50 of O=C(Oc1cccc2cccnc12)c1ccco1
9.83 µM

Would you mind telling me what AC50 value was observed for CN(C)S(=O)(=O)c1cccc(NC(=O)CSc2cccc3cccnc23)c1 ?
5.76 µM

# AC50 lookup, item CCCCC(=O)NC(c1ccc(N(C)C)cc1)c1ccc2cccnc2c1O (stereo not drawn)
2.63 µM

----------
Measured Target: Transforming acidic coiled-coil-containing protein 3 (Homo sapiens)
Method Description: inhibition of ARNT PAS-B/TACC3 complex formation – biochemical, AlphaScreen, cherry-picked samples, confirmation (AID 651703);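 also: TACC3 partner is the GST-tagged E629A mutant dimer; hits lower the signal meaning they disrupt ARNT binding to TACC3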
Condition Set: AlphaScreen His-ARNT PAS-B / GST-TACC3 binding, luminescence
Value Kind: AC50

mol=O=C(N[C@H]1CC[C@H](CCn2cc(-c3ccccn3)nn2)O[C@@H]1CO)c1cccnc1 value_kind=AC50 assay_value="9.74 µM"
mol=O=C(N/N=C/c1cc(Cl)ccc1O)c1cccnc1 value_kind=AC50 assay_value="7.68 µM"
mol=O=c1cc(-c2ccc(O)cc2)oc2c(O)c(O)c(O)c(O)c12 value_kind=AC50 assay_value="63 µM"

Requested read-out: AC50. Entry: O=S(=O)(N[C@@H]1CC[C@H](CCn2cc(-c3ccccn3)nn2)O[C@H]1CO)c1cccc(F)c1
18.2 µM

Request the reported AC50 associated with Cc1[nH]n(-c2ccccc2)c(=O)c1/C=N/NC(=O)COc1ccccc1[N+](=O)[O-]
15.8 µM

----------
Measured Target: Transforming acidic coiled-coil-containing protein 3 (Homo sapiens) (UniProt Q9Y6A5)
Method Description: inhibition of ARNT PAS-B/TACC3 complex formation – biochemical, AlphaScreen, cherry-picked samples, confirmation (AID 651703);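 also: TACC3 partner is the GST-tagged E629A mutant dimer; hits lower the signal meaning they disrupt ARNT binding to TACC3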
Condition Set: AlphaScreen His-ARNT PAS-B / GST-TACC3 binding, luminescence
Value Kind: AC50

Some molecules with known AC50 results, for comparison:
molecule="CCC(=O)NC(c1cc(Cl)c2cccnc2c1O)C(C)C (stereo not given)" assay_value="5.58 µM"
molecule=O=C(C1CCCC1)N1C[C@@H]2[C@H](c3ccccc31)[C@H](CO)N2C(=O)Cc1ccccn1 assay_value="67.4 µM"
molecule=c1ccc(-c2ccc(CNc3nc(-c4ccccn4)nnc3-c3ccccc3)cc2)cc1 assay_value="1.6 µM"
molecule=COc1ccc(NC(=O)N[C@H]2CC[C@@H](CCn3cc(-c4ccccn4)nn3)O[C@H]2CO)cc1 assay_value="17 µM"

Moving on to another molecule below.
What value of AC50 has been recorded for this entry: Nn1c(SCC(=O)Nc2ccc3c(c2)OCCO3)nnc1-c1ccccn1
18.6 µM
